Target: SIRT1 (Homo sapiens)
Sequence (Q96EB6 1-747): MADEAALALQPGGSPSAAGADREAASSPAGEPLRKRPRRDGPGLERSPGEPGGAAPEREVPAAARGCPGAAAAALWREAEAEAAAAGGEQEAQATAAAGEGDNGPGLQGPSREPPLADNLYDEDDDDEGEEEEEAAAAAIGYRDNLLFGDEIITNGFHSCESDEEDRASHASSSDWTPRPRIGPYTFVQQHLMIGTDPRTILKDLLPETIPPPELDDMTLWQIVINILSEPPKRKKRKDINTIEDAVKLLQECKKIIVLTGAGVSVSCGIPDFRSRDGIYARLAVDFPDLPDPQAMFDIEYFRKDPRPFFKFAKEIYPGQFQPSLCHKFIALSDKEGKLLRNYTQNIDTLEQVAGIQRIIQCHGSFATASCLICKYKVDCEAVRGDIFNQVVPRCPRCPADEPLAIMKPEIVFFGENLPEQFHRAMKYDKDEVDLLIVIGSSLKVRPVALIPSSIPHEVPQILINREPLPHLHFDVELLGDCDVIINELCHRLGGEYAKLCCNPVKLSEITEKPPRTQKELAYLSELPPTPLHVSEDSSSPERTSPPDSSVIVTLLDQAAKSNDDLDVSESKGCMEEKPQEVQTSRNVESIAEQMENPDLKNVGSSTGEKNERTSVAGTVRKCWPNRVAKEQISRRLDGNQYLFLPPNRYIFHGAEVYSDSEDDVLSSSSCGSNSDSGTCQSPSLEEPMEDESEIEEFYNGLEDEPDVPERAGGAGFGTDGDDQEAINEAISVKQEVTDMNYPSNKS
Assay: Mass spectrometry based assay to identify modulators (activators) of SIRT1 activity
Type: biochemical
Conditions: SIRT1 activation; 0.5 μM peptide substrate, 120 μM βNAD+, 10 nM SIRT1, 25 minutes at 25° C.

compound | EC1.5
COCCCc1sc(-c2ccccc2)nc1C(=O)Nc1ccccc1-c1nc2cccnc2s1 [Compound 6] | B (EC1.5>1 and ≦10 uM)
O=C(Nc1ccccc1-c1nc2cccnc2s1)c1nc(-c2ccccc2)sc1CN1CCCC1 [Compound 11] | B (EC1.5>1 and ≦10 uM)
